B1: Zinc finger homeobox protein 3, residues 2147 to 2202; numbered along this chain, Q15911 (parent)
chain: RPRTRITDDQLRVLRQYFDINNSPSEEQIKEMADKSGLPQKVIKHWFRNTLFKERQ

variants of: B1; assay: abundance fitness (aPCA) (normalised: wild type 0, dead -1); higher = more abundant; growth selection in yeast, the domain comes from the species named; details: Homo sapiens
READOUT TYPE: abundance fitness

1) F52L | 0.026
2) V13N | -0.227
3) Q16G | 0.008
4) R15Q | -0.045
5) G37V | -0.427
6) R55H | 0.013
7) D8C | 0.054
8) H45V | 0.015
9) A33G | -0.212
10) I20F | -0.037
11) W46R | -0.812
12) A33W | -0.556
13) T7Y | -0.388
14) L11I | -0.126
15) R12A | -0.122
16) S36L | 0.019
17) I43N | -0.959
18) W46M | -0.429
19) A33C | -0.158
20) P2L | 0.086
21) P39E | 0.009
22) I6Y | -0.123
